Taken from paper PMC9971899.

System: TM6-N4
Assay: Isothermal titration calorimetry of alginate and oligoalginate binding to TM6-N4
Design: species or system Defluviitalea phaphyphila
Details: ITC, 25 °C, pH 7.0; calculated from ΔG = ΔH-TΔS
quantityKind: TΔS (kJ/mol)

# molecule, unitInfo, result
measured = [
    ("O=C(O)[C@H]1O[C@@H](O[C@H]2[C@H](O)[C@H](O)[C@H](O[C@H]3[C@H](O)[C@H](O)[C@H](O[C@H]4[C@H](O)[C@H](O)[C@H](O[C@H]5[C@H](O)[C@H](O)C(O)O[C@@H]5C(=O)O)O[C@@H]4C(=O)O)O[C@@H]3C(=O)O)O[C@@H]2C(=O)O)[C@@H](O)[C@@H](O)[C@@H]1O (stereo partly drawn) [M5, mannuronate pentasaccharide]", "kJ/mol", -2.5),
    ("O=C(O)[C@@H]1O[C@@H](O[C@H]2[C@H](O)[C@H](O)[C@H](O[C@H]3[C@H](O)[C@H](O)[C@H](O[C@H]4[C@H](O)[C@H](O)C(O)O[C@H]4C(=O)O)O[C@H]3C(=O)O)O[C@H]2C(=O)O)[C@@H](O)[C@@H](O)[C@@H]1O (stereo partly drawn)", "kJ/mol", 4.6),
    ("O=C(O)[C@@H]1O[C@@H](O[C@H]2[C@H](O)[C@H](O)[C@H](O[C@H]3[C@H](O)[C@H](O)[C@H](O[C@H]4[C@H](O)[C@H](O)[C@H](O[C@H]5[C@H](O)[C@H](O)C(O)O[C@H]5C(=O)O)O[C@H]4C(=O)O)O[C@H]3C(=O)O)O[C@H]2C(=O)O)[C@@H](O)[C@@H](O)[C@@H]1O (stereo partly drawn)", "kJ/mol", -15.1),
    ("O=C(O)[C@@H]1O[C@@H](O[C@H]2[C@H](O)[C@H](O)[C@H](O[C@H]3[C@H](O)[C@H](O)[C@H](O[C@H]4[C@H](O)[C@H](O)[C@H](O[C@H]5[C@H](O)[C@H](O)[C@H](O[C@H]6[C@H](O)[C@H](O)[C@H](O[C@H]7[C@H](O)[C@H](O)C(O)O[C@H]7C(=O)O)O[C@H]6C(=O)O)O[C@H]5C(=O)O)O[C@H]4C(=O)O)O[C@H]3C(=O)O)O[C@H]2C(=O)O)[C@@H](O)[C@@H](O)[C@@H]1O (stereo partly drawn)", "kJ/mol", -22.6),
    ("O=C(O)[C@H]1O[C@@H](O[C@H]2[C@H](O)[C@H](O)[C@H](O[C@H]3[C@H](O)[C@H](O)[C@H](O[C@H]4[C@H](O)[C@H](O)[C@H](O[C@H]5[C@H](O)[C@H](O)[C@H](O[C@H]6[C@H](O)[C@H](O)C(O)O[C@@H]6C(=O)O)O[C@@H]5C(=O)O)O[C@@H]4C(=O)O)O[C@@H]3C(=O)O)O[C@@H]2C(=O)O)[C@@H](O)[C@@H](O)[C@@H]1O (stereo partly drawn)", "kJ/mol", 26.8),
    ("O=C(O)[C@H]1O[C@@H](O[C@H]2[C@H](O)[C@H](O)[C@H](O[C@H]3[C@H](O)[C@H](O)[C@H](O[C@H]4[C@H](O)[C@H](O)[C@H](O[C@H]5[C@H](O)[C@H](O)[C@H](O[C@H]6[C@H](O)[C@H](O)[C@H](O[C@H]7[C@H](O)[C@H](O)C(O)O[C@@H]7C(=O)O)O[C@@H]6C(=O)O)O[C@@H]5C(=O)O)O[C@@H]4C(=O)O)O[C@@H]3C(=O)O)O[C@@H]2C(=O)O)[C@@H](O)[C@@H](O)[C@@H]1O (stereo partly drawn)", "kJ/mol", 21.8),
]
